Hey, just so you know, these numbers are from patent US20220259289A1.

Below, each entry is listed with its recorded ELISA Fc Control (RLU).
# EXPERIMENTAL SYSTEM: unrelated Fc-fused recombinant protein
# METHOD DESCRIPTION: ELISA, negative control Fc protein
Numeric only. Scale: RLU

Known results for binders:
BINDER	VALUE MEASURED
ISOP193FR9P1C5 (designed binder, not shown: small tags and cut ends) LPAPKNLVVSRVTEDSARLSWTAPDAAFDSFHIYYLEQYSRGEAIVLTVPGSERSYDLTGLKPGTEYLVTIYGVKGCDWSDPLSAIFTT	79300
ISOP193BR9P1B12 (designed binder, not shown: small tags and cut ends) LPAPKNLVVSRVTEDSARLSWPDESRPVRFDSFLIQYQESEKVGEAIVLTVPGSERSYDLTGLKPGTEYTVSIYGVLRPWIYATNDSNPLSAIFTT	14000

Ask: // lookup ELISA Fc Control (RLU) for ISOP193FR9P1G9 (designed binder, not shown: small tags and cut ends) LPAPKNLFVSRVTEDSARLSWTAPDAAFDSFQIYYREQWWDGEAIVLTVPGSERSYDLTGLKPGTEYLVTIYGVKGCDWSDPLSAIFTT
Result: 33600

Ask: Follow-up entry: ISOP193BR9P1H2 (designed binder, not shown: small tags and cut ends) LPAPKNLVVSRVTEDSARLSWPDESRPVRFDSFLIQYQESEKVGEAIVLTVPGSERSYDLTGLKPGTEYTVSIYGVHTRDWTAWNASNPLSAIFTT
Result: 11800
